Recorded measurements of phenotypically active, one per entry
# System: WPMY1-GM130-SQSTM1
# measurement.description: phenotypically active (imaging signature differs from DMSO and reproducible) at any of 0.3-9 uM (binary (1 = active, 0 = inactive)); higher = active
# condition.notes: treatment time: 24 h
Counter-ions that a name gives are not always drawn.

compound: CC[N+](CC)(CCCNC1=CC(=O)C(NCCC[N+](CC)(CC)Cc2ccccc2)=CC1=O)Cc1ccccc1 [Benzoquinonium dibromide]
phenotypically active: 0
//
compound: COc1ccc2c(c1)/C(=C/c1c[nH]cn1)C(=O)N2
phenotypically active: 1
//
compound: C[C@@H]1C[C@@H]([C@H](O)CC2CC(=O)NC(=O)C2)C(=O)[C@@H](C)C1 [Cycloheximide]
phenotypically active: 1
//
compound: C[C@@]12C(=O)OC(=O)[C@]1(C)[C@H]1CC[C@@H]2O1 [Cantharidin]
phenotypically active: 1
//
compound: N#CC(O[C@@H]1O[C@H](CO[C@@H]2O[C@H](CO)[C@@H](O)[C@H](O)[C@H]2O)[C@@H](O)[C@H](O)[C@H]1O)c1ccccc1 (stereo partly specified) [Amygdalin]
phenotypically active: 0
//
compound: CCOc1cc(C=O)ccc1O [Ethylvanilline]
phenotypically active: 0
//
compound: CCN(C)C(=O)Oc1cccc([C@H](C)N(C)C)c1 [rivastigmine]
phenotypically active: 0
//
compound: C=C[C@]12CN(C)[C@@H]3[C@H]4CO[C@H](C[C@H]41)[C@]1(C(=O)Nc4ccccc41)[C@@H]32 [Gelsemine]
phenotypically active: 0
//
compound: CN1C[C@H](C(=O)N[C@]2(C)O[C@@]3(O)[C@@H]4CCCN4C(=O)[C@H](Cc4ccccc4)N3C2=O)C=C2c3cccc4[nH]cc(c34)C[C@H]21 [ergotamine]
phenotypically active: 1
//
compound: C/C=C1\C[C@@H](C)[C@](O)(CO)C(=O)OCC2=CCN3CC[C@@H](OC1=O)[C@@H]23 [Retrorsine]
phenotypically active: 0
//
compound: C=C1[C@@H](O)C2C=CC[C@H](C)C(=O)[C@](C)(O)C=C[C@@H](OC(C)=O)[C@]23C(=O)N[C@H](Cc2ccccc2)[C@@H]3[C@@H]1C (stereo partly specified) [Cytochalasin D]
phenotypically active: 1
//
compound: CC(C)CC(N(C)C)C1(c2ccc(Cl)cc2)CCC1 (stereo unspecified) [sibutramine]
phenotypically active: 0
//
compound: CN1[C@@H]2CC[C@H]1C[C@@H](OC(=O)C(CO)c1ccccc1)C2 (stereo partly specified) [Atropine sulfate monohydrate]
phenotypically active: 0
//
compound: CCN(CC)C(C)C(=O)c1ccccc1 (stereo unspecified) [amfepramone]
phenotypically active: 0
//
compound: CC(C)C[C@H](CN)CC(=O)O [pregabalin]
phenotypically active: 0
//
compound: COc1cc(C(=O)O[C@H]2C[C@H]3CC[C@@H](C2)N3C)ccc1O [Fillalbin]
phenotypically active: 0

----------
# System: WPMY1-ACTB-RAB5A
# measurement.description: lowest phenotypically active concentration; higher = less potent
# condition.notes: treatment time: 24 h
readout: lowest phenotypically active concentration

compound: O=C1NC(=S)N(c2cccc(Br)c2)C(=O)/C1=C/c1ccco1
assay.result: 3 µM
--
compound: CC[C@]12C=CCN3CC[C@]4(C(=C(C(=O)OC)C1)Nc1ccccc14)[C@@H]32 [Tabersonine dichlorhydrate]
assay.result: 9 µM
--
compound: C[C@]12CC[C@H]3[C@@H](CC[C@]4(O)C[C@@H](O)CC[C@]34C=O)[C@@]1(O)CC[C@@H]2C1=CC(=O)OC1 [Strophanthidin]
assay.result: ≤ 0.3 µM
--
compound: C[C@]12CC[C@H](O)C[C@H]1CC[C@@H]1[C@@H]2CC[C@]2(C)[C@@H](C3=CC(=O)OC3)CC[C@]12O [Digitoxigenin]
assay.result: ≤ 0.3 µM
--
compound: C=C1[C@@H](O)C2C=CC[C@H](C)C(=O)[C@](C)(O)C=C[C@@H](OC(C)=O)[C@]23C(=O)N[C@H](Cc2ccccc2)[C@@H]3[C@@H]1C (stereo partly specified) [Cytochalasin D]
assay.result: ≤ 0.3 µM
--
compound: C[C@@H]1CC[C@H]2[C@@H](C)C(=O)O[C@@H]3O[C@@]4(C)CC[C@@H]1[C@]32OO4 [Artemisinin]
assay.result: ≤ 0.3 µM

----------
# Tested on: HepG2-TP53BP1-CLTA
# measurement.description: lowest phenotypically active concentration; higher = less potent
# condition.notes: treatment time: 24 h
readout: lowest phenotypically active concentration

compound: C[C@@H]1C[C@@H]([C@H](O)CC2CC(=O)NC(=O)C2)C(=O)[C@@H](C)C1 [Cycloheximide]
tested.on: HepG2-TP53BP1-CLTA
assay.result: 3 µM

compound: C[C@@]1(CO)[C@H](O)CC[C@@]2(C)[C@H]1CC[C@H]1C[C@@H]3C[C@@]12CC[C@]3(O)CO
tested.on: HepG2-TP53BP1-CLTA
assay.result: ≤ 0.3 µM

compound: Cc1sc2c(c1C)C(c1ccc(Cl)cc1)=N[C@@H](CC(=O)OC(C)(C)C)c1nnc(C)n1-2
tested.on: HepG2-TP53BP1-CLTA
assay.result: ≤ 0.3 µM

----------
# Test system: WPMY1-TP53BP1-CLTA
# measurement.description: lowest phenotypically active concentration; higher = less potent
# condition.notes: treatment time: 24 h
readout: lowest phenotypically active concentration (µM)

compound: Cc1cc2c(C(C)C)c(O)c(O)c(C=O)c2c(O)c1-c1c(C)cc2c(C(C)C)c(O)c(O)c(C=O)c2c1O
units.symbol: µM
reading.qualifier: =
assay.result: 3
//
compound: CN1C[C@H](C(=O)N[C@]2(C)O[C@@]3(O)[C@@H]4CCCN4C(=O)[C@H](Cc4ccccc4)N3C2=O)C[C@@H]2c3cccc4[nH]cc(c34)C[C@H]21.CN1C[C@H](C(=O)N[C@]2(C)O[C@@]3(O)[C@@H]4CCCN4C(=O)[C@H](Cc4ccccc4)N3C2=O)C[C@@H]2c3cccc4[nH]cc(c34)C[C@H]21 [dihydroergotamine]
units.symbol: µM
reading.qualifier: =
assay.result: 9
//
compound: C[C@@]1(CO)[C@H](O)CC[C@@]2(C)[C@H]1CC[C@H]1C[C@@H]3C[C@@]12CC[C@]3(O)CO
units.symbol: µM
reading.qualifier: =
assay.result: 1
//
compound: COc1ccc2c(c[n+](C)c3c4cc5c(cc4ccc23)OCO5)c1OC [Chelerythrine chloride]
units.symbol: µM
reading.qualifier: =
assay.result: 9
//
compound: COc1ccc2c(c1)/C(=C/c1c[nH]cn1)C(=O)N2
units.symbol: µM
reading.qualifier: =
assay.result: 1
//
compound: CC[C@@H](C(=O)[C@@H](C)[C@@H](O)[C@H](C)[C@@H]1O[C@@H]([C@@H](CC)C(=O)O)CC[C@@H]1C)[C@H]1O[C@]2(C=C[C@@H](O)[C@]3(CC[C@@](C)([C@H]4CC[C@](O)(CC)[C@H](C)O4)O3)O2)[C@H](C)C[C@@H]1C [Salinomycin Sodium]
units.symbol: µM
reading.qualifier: ≤
assay.result: 0.3
//
compound: C=C(C)[C@H]1Cc2c(ccc3c2O[C@@H]2COc4cc(OC)c(OC)cc4[C@@H]2C3=O)O1
units.symbol: µM
reading.qualifier: ≤
assay.result: 0.3
//
compound: C[C@H]1CCCC=C[C@@H]2C[C@H](O)C[C@H]2[C@H](O)C=CC(=O)O1
units.symbol: µM
reading.qualifier: ≤
assay.result: 0.3
//
compound: COC(=O)[C@@]1(O)C[C@H]2O[C@]1(C)n1c3ccccc3c3c4c(c5c6ccccc6n2c5c31)C(=O)NC4
units.symbol: µM
reading.qualifier: ≤
assay.result: 0.3
//
compound: C[C@]12CC[C@H](O)C[C@H]1CC[C@@H]1[C@@H]2C[C@@H](O)[C@]2(C)[C@@H](C3=CC(=O)OC3)CC[C@]12O
units.symbol: µM
reading.qualifier: =
assay.result: 1

----------
# Tested on: HepG2-CANX-COX4
# measurement.description: phenotypically active (imaging signature differs from DMSO and reproducible) at any of 0.3-9 uM (binary (1 = active, 0 = inactive)); higher = active
# condition.notes: treatment time: 24 h
Recorded measurements of phenotypically active, one per entry
readout: phenotypically active

compound: O=C1CCCN1CC#CCN1CCCC1 [Oxotremorine sesquifumarate]
tested.on: HepG2-CANX-COX4
assay.result: 0

compound: CN1C(=O)CN=C(c2ccccc2)c2cc(Cl)ccc21 [diazepam]
tested.on: HepG2-CANX-COX4
assay.result: 0

compound: CC(C)[C@H]1C(=O)O[C@@H]2CCN3CC=C(COC(=O)[C@](C)(O)[C@@]1(C)O)[C@H]23 [Trichodesmine]
tested.on: HepG2-CANX-COX4
assay.result: 0

compound: COc1ccc(C(=O)Cc2c(CCN(C)C)cc3c(c2OC)OCO3)c(C(=O)O)c1OC [Narcétine]
tested.on: HepG2-CANX-COX4
assay.result: 0

compound: CCN1C[C@]2(COC)CC[C@H](O)[C@@]34[C@@H]5C[C@H]6[C@H](OC(C)=O)[C@@H]5[C@](O)(C[C@@H]6OC)[C@H](C[C@H]23)[C@H]14 [Condelphine]
tested.on: HepG2-CANX-COX4
assay.result: 0

compound: C=CCC1(C(C)C#CCC)C(=O)NC(=O)N(C)C1=O (stereo not drawn) [methohexital]
tested.on: HepG2-CANX-COX4
assay.result: 0

compound: N#CC(O[C@@H]1O[C@H](CO[C@@H]2O[C@H](CO)[C@@H](O)[C@H](O)[C@H]2O)[C@@H](O)[C@H](O)[C@H]1O)c1ccccc1 (stereo partly drawn) [Amygdalin]
tested.on: HepG2-CANX-COX4
assay.result: 0

compound: Nc1ccncc1 [dalfampridine]
tested.on: HepG2-CANX-COX4
assay.result: 0
